System: SK-MEL-5 melanoma
Method: NCI tumour cell line growth inhibition, 48 h
Readout Kind: TGI (µM)
Write it as a number; the unit µM goes unstated.

Cn1cnc(SC2=CC(=O)C=C3S[C@H]4C[C@@]23c2c(c(O)c3c5c2=NCCC=5C=N3)N4)c1CC(N)C(=O)O (stereo not given in full) = 27.6
CC(C)(C)c1ccc(NS(=O)(=O)c2ccc(N)cc2)cc1 = 32.5

Now for another entry.
Query: State its TGI for this compound: CCN(CC)CCOCCOCC1(c2ccc(Cl)c(Cl)c2)CCCCC1
Result: 4.88

----------
Test system: EKVX NSCLC
Method: NCI tumour cell line growth inhibition, 48 h
TGI for assorted molecules

// below: answered molecules
Cc1cc2c3c(nc2c2cc[nH]c(C)c12)CCCC3 = 8.44 µM
COc1cccc(C2SC(C)C(=O)N2NC(=O)C(O)c2ccccc2)c1 (stereo not given) = > 100 µM
CC12CP(=O)(O)CC1C2(Cl)Cl (stereo not given) = > 100 µM
O=C1C2CCCC2N1Cc1ccccc1 (stereo not given) = > 100 µM
Nc1ccc(C(=O)CC2(O)C(=O)Nc3ccccc32)cc1 (stereo not given) = > 100 µM
CO[C@H]1/C=C/O[C@@]2(C)Oc3c(C)c(O)c4c(O)c(c(/C=N/N5C(C)CN(Cc6ccc(C#N)cc6)CC5C)c(O)c4c3C2=O)NC(=O)/C(C)=C\C=C\[C@H](C)[C@H](O)[C@@H](C)[C@@H](O)[C@@H](C)[C@H](OC(C)=O)[C@@H]1C (stereo not given in full) = 39.4 µM
CCCCCCCCCCCCCC(=O)OCC(CCS(=O)(=O)O[C@H]1CC[C@@]2(C)C(=CC[C@@H]3C2CC[C@]2(C)C(=O)CCC32)C1)OC(=O)CCCCCCCCCCCCC (stereo not given in full) = > 100 µM
Cc1ccc2c(ccc3ncc(CNc4ccc(NS(C)(=O)=O)cc4)c32)[nH]1 = > 100 µM

Query: Provide TGI, system EKVX NSCLC, entry COC(=O)CCCCCOS(=O)(=O)c1ccc(C)cc1
Result: > 100 µM

Query: Provide TGI, system EKVX NSCLC, entry C=CCC1(CN(C)C)CC/C(=C\c2cc(OC)c(OC)c(OC)c2)C1=O (stereo not given)
Result: 61.4 µM

----------
Test system: HL-60(TB) leukemia
Method: NCI tumour cell line growth inhibition, 48 h; in the data active means GI50 below about 0.43 µM; inactive means the rest
Respond only with the outcome that fits, drawn from T for active, F for inactive

Past entries and their recorded results:
C#Cc1cccc(Nc2nc(C)nc3cc(NC(=O)CCl)ccc23)c1 = F
Oc1c(CN2CCCCC2)ccc2cccnc12 = F
NC(CCl)=NCC12CC3CC(CC(C3)C1)C2 = F
COc1ccc2cc(C(=O)N3CCC([C@@H](C)C(=O)NCc4ccc5c(c4)OCO5)CC3)[nH]c2c1 = F
O=C1NN(C(=O)c2ccccc2)C(c2ccc(Cl)c(Cl)c2)=C/C1=C\c1ccccc1[N+](=O)[O-] = F
O=c1oc2ccc(F)cc2c(=O)n1-c1ccc(I)cc1F = T
COC(=O)[C@@H](C)C[C@H](Cc1ccccc1)NC(=O)c1csc([C@@H](C[C@H](C(C)C)N(C)C(=O)[C@@H](NC(=O)[C@H]2CCCCN2C)c2ccc(F)cc2)OC(C)=O)n1 = T

Shift focus to the following entry.
Query: Hi team, can someone confirm the assay call for Cc1cccc2c(=O)c3c(sc12)c(NCCCN)nc1ccccc13 ?
Result: F

----------
System: UACC-62 melanoma
Method: NCI tumour cell line growth inhibition, 48 h
Readout Kind: TGI

// below: answered compounds
C[C@H](CCC(=O)O)[C@H]1CC[C@H]2[C@@H]3[C@H](O)[C@H](O)[C@@H]4C[C@H](O)CC[C@]4(C)[C@H]3CC[C@]12C = > 100 µM
Cc1ccccc1SC(/C=C/NNC1=NC(c2ccccc2)C(c2ccccc2)=NN1)c1ccccc1 (centres undefined) = > 100 µM
Nc1ccc(C(=O)CC2(O)C(=O)Nc3ccccc32)cc1 (centres undefined) = > 100 µM

Query: Provide TGI, system UACC-62 melanoma, entry COc1ccc(/C=C/c2cc(OC)c(OC)c(OC)c2)cc1OC
Result: > 100 µM

Query: Provide TGI, system UACC-62 melanoma, entry Nc1nncc2n[nH]nc12
Result: > 100 µM

Query: Provide TGI, system UACC-62 melanoma, entry O=C(NC1CCCCC1)NC12CC3CC(CC(F)(C3)C1)C2
Result: > 100 µM

Query: Provide TGI, system UACC-62 melanoma, entry O=C1C2CCCC2N1Cc1ccccc1 (centres undefined)
Result: > 100 µM

Query: Provide TGI, system UACC-62 melanoma, entry N/C(=C\c1ccc(/C=C(\NC(=O)c2ccccc2)c2nc3c([nH]2)C(=O)c2ccccc2C3=O)cc1)c1nc2c([nH]1)C(=O)c1ccccc1C2=O
Result: 27.8 µM

Query: Provide TGI, system UACC-62 melanoma, entry CC(C)(C)OC(=O)NCC(c1c[nH]c2cc(Br)ccc12)c1c[nH]c2cc(Br)ccc12
Result: 30.1 µM

Query: Provide TGI, system UACC-62 melanoma, entry COc1c(C)c(C/C=C(\C)CC/C=C(\C)CC/C=C(\C)CC/C=C(\C)CCC=C(C)C)c(OC)c(OC)c1OC
Result: > 100 µM

Query: Provide TGI, system UACC-62 melanoma, entry Cc1cccc2c(=O)c3c(sc12)c(NCCCN)nc1ccccc13
Result: 3.06 µM

Query: Provide TGI, system UACC-62 melanoma, entry COC(=O)c1ccc(Oc2nc3ccc(C(F)(F)F)cc3nc2-c2ccccc2)cc1
Result: > 100 µM

----------
Test system: SF-268 CNS
Method: NCI tumour cell line growth inhibition, 48 h
TGI for assorted molecules

// below: answered molecules
Brc1ccc2nc(-c3cccs3)nc(N3CCN(c4ccccc4)CC3)c2c1 = > 100 µM
Cc1ccc2c(ccc3ncc(CNc4ccc(NS(C)(=O)=O)cc4)c32)[nH]1 = 52.5 µM
CC(C)(C)n1[nH]c(=O)n(C(C)(C)C)c1=O = > 100 µM

Query: State its TGI for this molecule: C=C(C)[C@@H]1C/C=C(/COC(C)=O)CC[C@H]2O[C@@]2(C)CC/C=C(\C)CC1
Result: > 100 µM

Query: State its TGI for this molecule: CSc1nc2c(nc(N)n2C2OC(CO)C(O)C(O)C2O)c(=O)[nH]1 (stereo unspecified)
Result: > 100 µM

Query: State its TGI for this molecule: CCCCCCCCCCCCCCCCCC1=NC(C)(C)CN1C(C)(C)CO
Result: 3.02 µM

Query: State its TGI for this molecule: Cn1cc(-c2ncnc3ccc(-c4cnc(Cl)c(NS(C)(=O)=O)c4)cc23)c2ccccc21
Result: > 100 µM

Query: State its TGI for this molecule: CCCCC1Nc2ccccc2-c2ccnc(Cl)c21 (stereo unspecified)
Result: 89.2 µM

Query: State its TGI for this molecule: O=C(N/N=C/c1ccc([N+](=O)[O-])cc1)c1ccccc1Nc1ccnc(C(F)(F)F)c1
Result: 82.8 µM

----------
Tested on: PC-3 prostate
Method: NCI tumour cell line growth inhibition, 48 h
Readout Kind: GI50

// below: answered compounds
FC(F)(F)c1cccc(Oc2ccc(Nc3ncnc4ccc(OCCCN5CCOCC5)cc34)cc2Cl)c1 = 2.4 µM
O=c1cc(-c2ccccc2)oc2c(O)c(O)ccc12 = 7.74 µM
COC1=CC(c2ccc[nH]2)=N/C1=C\c1[nH]c(C)c(CC(=O)NCc2ccccc2)c1C = 1.1 µM

Now for another entry.
Query: State its GI50 for this compound: [Mn+3].[O-][Cl+3]([O-])([O-])O.[O-]c1ccccc1C=NCCN1CC1.[O-]c1ccccc1C=NCCN1CC1
Result: 19.9 µM

----------
GI50 for assorted molecules
Test system: IGROV1 ovarian
Method: NCI tumour cell line growth inhibition, 48 h

Query: State its GI50 for this molecule: CC(=O)CCc1ccc(Oc2c3ccccc3nc3occc23)cc1
Result: 33.9 µM

Query: State its GI50 for this molecule: O=C1/C(=C/c2ccc(Cl)cc2)N=C(c2ccccc2)N1c1cc(C(F)(F)F)ccc1Cl
Result: 18.5 µM

Query: State its GI50 for this molecule: C=C[C@@H]1CCC/C=C/[C@@H]2C[C@H](O)C[C@H]2[C@H](O)/C=C/C(=O)O1
Result: 1.7 µM

----------
System: KM12 colon
Method: NCI tumour cell line growth inhibition, 48 h
GI50 for assorted molecules

Query: Provide GI50, system KM12 colon, entry CC(=O)CCc1ccc(Oc2c3ccccc3nc3occc23)cc1
Result: 16.1 µM

Query: Provide GI50, system KM12 colon, entry NC(=O)c1ccc(I)c([N+](=O)[O-])c1
Result: > 100 µM

Query: Provide GI50, system KM12 colon, entry N#Cc1ccc2[nH]cc(Cc3c[nH]c4ccc(C#N)cc34)c2c1
Result: 9.88 µM

Query: Provide GI50, system KM12 colon, entry COc1nc2c(c(=O)n1C)CN(c1ccccc1)C(=O)CN2C
Result: 27.3 µM

Query: Provide GI50, system KM12 colon, entry CN1C(c2ccccc2)CC(=NO)CC1c1ccccc1 (stereo not given)
Result: 49.1 µM
